assay: Antiviral activity against Influenza A virus (A/Hong Kong/7/1987(H3N2)) infected in MDCK cells assessed as reduction of virus-induced cytopathic effect after 72 hrs by microscopic analysis; type: functional, cell-based
observable: EC50 (µM)
Dear colleague, please return just the value in µM, with no unit written.

Reference set, count: 2
NC(=O)c1ncn([C@@H]2O[C@H](CO)[C@@H](O)[C@H]2O)n1 ... 12
COC(=O)[C@H]1NC(=O)[C@H]2NC(=O)[C@H](NC(=O)[C@@H]3NC(=O)[C@H]4NC(=O)[C@H](NC(=O)[C@H](N)c5ccc(O)c(c5)Oc5cc4cc(O)c5C)[C@H](O)c4ccc(cc4)Oc4cc3cc(c4O)Oc3ccc(cc3)[C@H]2O)c2ccc(O)c(c2)-c2c(O)cc(O)cc21 ... 4.6

# evaluate next
(Q) Fill in the blank: the reported EC50 of NC12CC3CC(CC(C3)C1)C2 is ____.
(A) 2

###

Listed here are compounds together with their documented MIC.
tested on: Enterococcus faecalis; experiment: Antibacterial activity against VanA+ Enterococcus faecalis 15376 by broth microdilution method; assay type: functional
Dear colleague, please return just the value in µg/mL, with no unit written.

(Q) Fill in the blank: the reported MIC of CC(=O)N[C@H]1[C@H](O[C@@H]2c3ccc(c(Cl)c3)Oc3cc4cc(c3O)Oc3ccc(cc3Cl)C[C@H]3NC(=O)[C@H](Nc5c(NCc6ccc(-c7ccccc7)cc6)c(=O)c5=O)c5ccc(O)c(c5)Oc5cc(O)cc(c5)[C@H](NC3=O)C(=O)N[C@H]4C(=O)N[C@H]3C(=O)N[C@@H]2C(=O)N[C@H](C(=O)O)c2cc(O)cc(O)c2-c2cc3ccc2O)O[C@H](CO)[C@@H](O)[C@@H]1O is ____.
(A) 256

(Q) Fill in the blank: the reported MIC of COc1c(N[C@H]2C(=O)N[C@@H]3Cc4ccc(c(Cl)c4)Oc4cc5cc(c4O)Oc4ccc(cc4Cl)[C@@H](O)[C@@H]4NC(=O)[C@H](NC(=O)[C@@H]5NC(=O)[C@@H](NC3=O)c3cc(O)cc(c3)Oc3cc2ccc3O)c2ccc(O)c(c2)-c2c(O)cc(O)cc2[C@@H](C(=O)O)NC4=O)c(=O)c1=O is ____.
(A) 2

(Q) Fill in the blank: the reported MIC of COC(=O)[C@H]1NC(=O)[C@H]2NC(=O)[C@H](NC(=O)[C@@H]3NC(=O)[C@H]4NC(=O)[C@@H](Cc5ccc(c(Cl)c5)Oc5cc3cc(c5O)Oc3ccc(cc3Cl)[C@H]2O[C@@H]2O[C@H](CO)[C@@H](O)[C@H](O)[C@H]2NC(C)=O)NC(=O)[C@H](Nc2c(OC)c(=O)c2=O)c2ccc(O)c(c2)Oc2cc(O)cc4c2)c2ccc(O)c(c2)-c2c(O)cc(O)cc21 is ____.
(A) 0.5

(Q) Fill in the blank: the reported MIC of COC(=O)[C@H]1NC(=O)[C@H]2NC(=O)[C@H](NC(=O)[C@@H]3NC(=O)[C@H]4NC(=O)[C@@H](Cc5ccc(cc5)Oc5cc3cc(c5O)Oc3ccc(cc3)[C@H]2O)NC(=O)[C@H](Nc2c(NCc3ccc(-c5ccccc5)cc3)c(=O)c2=O)c2ccc(O)c(c2)Oc2cc(O)cc4c2)c2ccc(O)c(c2)-c2c(O)cc(O)cc21 is ____.
(A) 16

(Q) Fill in the blank: the reported MIC of O=C1N[C@H]2C(=O)N[C@H]3C(=O)N[C@H](C(=O)N[C@H](C(=O)O)c4cc(O)cc(O)c4-c4cc3ccc4O)[C@H](O)c3ccc(c(Cl)c3)Oc3cc2cc(c3O)Oc2ccc(cc2Cl)C[C@H]2NC(=O)[C@H](Nc3c(NCc4ccc(-c5ccccc5)cc4)c(=O)c3=O)c3ccc(O)c(c3)Oc3cc(O)cc(c3)[C@@H]1NC2=O is ____.
(A) 1

(Q) Fill in the blank: the reported MIC of COC(=O)[C@H]1NC(=O)[C@H]2NC(=O)[C@H](NC(=O)[C@@H]3NC(=O)[C@H]4NC(=O)[C@@H](Cc5ccc(c(Cl)c5)Oc5cc3cc(c5O)Oc3ccc(cc3Cl)[C@H]2O)NC(=O)[C@H](Nc2c(NCc3ccc(-c5ccccc5)cc3)c(=O)c2=O)c2ccc(O)c(c2)Oc2cc(O)cc4c2)c2ccc(O)c(c2)-c2c(O)cc(O)cc21 is ____.
(A) 128

(Q) Fill in the blank: the reported MIC of COC(=O)[C@H]1NC(=O)[C@H]2NC(=O)[C@H](NC(=O)[C@@H]3NC(=O)[C@H]4NC(=O)[C@@H](Cc5ccc(c(Cl)c5)Oc5cc3cc(c5O)Oc3ccc(cc3Cl)[C@H]2O[C@@H]2O[C@H](CO)[C@@H](O)[C@H](O)[C@H]2NC(C)=O)NC(=O)[C@H](N)c2ccc(O)c(c2)Oc2cc(O)cc4c2)c2ccc(O)c(c2)-c2c(O)cc(O)cc21 is ____.
(A) 0.5

(Q) Fill in the blank: the reported MIC of COC(=O)[C@H]1NC(=O)[C@H]2NC(=O)[C@H](NC(=O)[C@@H]3NC(=O)[C@H]4NC(=O)[C@@H](Cc5ccc(c(Cl)c5)Oc5cc3cc(c5O)Oc3ccc(cc3Cl)[C@H]2O[C@@H]2O[C@H](CO)[C@@H](O)[C@H](O)[C@H]2NC(C)=O)NC(=O)[C@H](Nc2c(NCc3ccc(-c5ccccc5)cc3)c(=O)c2=O)c2ccc(O)c(c2)Oc2cc(O)cc4c2)c2ccc(O)c(c2)-c2c(O)cc(O)cc21 is ____.
(A) 0.5
